Sourced from patent US20180320179A1

Reported Disease Control (%) SEPTTR-184 3DC values for the following molecules.
system: Zymoseptoria tritici (SEPTTR-184); test: Cyp51 dsRNA tile (fragment) foliar application bioassay (Example 6); format: in vivo; conditions: 3 days curative; rate 12.5 ppm; average of 2 trials

Molecule: MgCyp51-T1: dsRNA tile of Zymoseptoria tritici Cyp51, 232 bp, location 166-397 (nucleic acid, listed as Zymoseptoria tritici) GTATTCCACTGGGTGCCCTTCATCGGAAGCACCATCACATACGGCATCGACCCATACAAGTTCTTCTTCTCCTGTCGGGAAAAGTATGGAGATGTCTTTACATTCATCCTGCTGGGAAAGAAGACGACGGTGTGCTTGGGCACCAAGGGCAATGATTTTATTTTGAATGGAAAACTGAAGGACGTCAACGCGGAGGAGATATACAGCCCGCTGACCACTCCTGTCTTTGGCA
U: %
Disease Control (%) SEPTTR-184 3DC: 78

Molecule: MgCyp51-T8: dsRNA tile of Zymoseptoria tritici Cyp51, 242 bp, location 1151-1392 (nucleic acid, listed as Zymoseptoria tritici) TTCTGCGCAAGGTCAAGTCTCCCATGCCCATCGAAGGTACGGCATACGTCATTCCAACCACCCACACTCTTCTGGCCGCTCCGGGCACAACGAGCCGCATGGACGAGCACTTTCCCGACTGCCTCCATTGGGAGCCGCATCGATGGGACGAGAGCCCGTCCGAGAAATACAAGCACCTGTCCCCGACGACTGCCCTAGGAAGCATCGCCGAGGAGAAAGAAGACTATGGCTACGGCCTGGTA
U: %
Disease Control (%) SEPTTR-184 3DC: 68

Molecule: MgCyp51-T7: dsRNA tile of Zymoseptoria tritici Cyp51, 111 bp, location 1490-1600 (nucleic acid, listed as Zymoseptoria tritici, long dsRNA tile, purified, chemistry not given here) CGACGATGGTTCGCGATTTCAAGTTTTACAATGTGGATGGCAGCGACAACGTGGTGGGTACGGATTACAGCAGTTTGTTCAGCCGGCCGCTGTCGCCGGCAGTAGTAAAGT
U: %
Disease Control (%) SEPTTR-184 3DC: 63

Molecule: MgCyp51-T5: dsRNA tile of Zymoseptoria tritici Cyp51, 133 bp, location 1316-1448 (nucleic acid, listed as Zymoseptoria tritici) AATACAAGCACCTGTCCCCGACGACTGCCCTAGGAAGCATCGCCGAGGAGAAAGAAGACTATGGCTACGGCCTGGTAAGCAAGGGCGCGGCGTCGCCATACTTACCCTTTGGTGCGGGACGACACAGATGTAT
U: %
Disease Control (%) SEPTTR-184 3DC: 64
